Test system: Jurkat
Test: Cytotoxicity against human Jurkat cells
Type: functional, cell-based
CC50: recorded values
Your answer should be a plain number; it is taken to be in µM.

COMPOUND	MEASURED NUMBER
CC1(c2ccccc2)CC(c2ccccc2)=CC(N)=C1C#N (configuration not stated)	15.1
CC1=C(/C=C/C2=Cc3ncnc(N)c3C(C)(/C=C/C3=C(C)CCCC3(C)C)C2)C(C)(C)CCC1 (configuration not stated)	12.8
CC1(c2ccc(F)cc2)CC(c2ccc(F)cc2)=CC(N)=C1C#N (configuration not stated)	19.4
CC1(c2ccc(F)cc2)CC(c2ccc(F)cc2)=Cc2ncnc(N)c21 (configuration not stated)	3.24
CC1(c2ccc3ccccc3c2)CC(c2ccc3ccccc3c2)=Cc2ncnc(N)c21 (configuration not stated)	9.37

Prompt line: Param readout= CC50; system= Jurkat; entry= CC1(c2ccccc2)CC(c2ccccc2)=Cc2ncnc(N)c21 (configuration not stated) ; returns value.
Response line: 17.6

Prompt line: Report CC50 for CC1(c2ccc(Br)s2)CC(c2ccc(Br)s2)=CC(N)=C1C#N (configuration not stated) tested on Jurkat.
Response line: 13.9

###

Tested on: Escherichia coli
Experiment: Antimicrobial activity against Escherichia coli
Assay type: functional
TEST READOUT: MIC

Some entries whose results are on file:
COMPOUND	MIC
CC1(c2ccc(F)cc2)CC(c2ccc(F)cc2)=CC(N)=C1C#N (stereo unspecified)	≥ 189 µM
CC1(c2ccc3ccccc3c2)CC(c2ccc3ccccc3c2)=CC(N)=C1C#N (stereo unspecified)	≥ 189 µM
CC1(c2ccc(Br)cc2)CC(c2ccc(Br)cc2)=Cc2ncnc(N)c21 (stereo unspecified)	≥ 189 µM
CC1(c2ccc(Br)s2)CC(c2ccc(Br)s2)=Cc2ncnc(N)c21 (stereo unspecified)	≥ 189 µM
CCCCCCC1=CC(N)=C(C#N)C(C)(CCCCCC)C1 (stereo unspecified)	≥ 189 µM

Prompt line: What value of MIC has been reported for the following compound? CC1(c2cccs2)CC(c2cccs2)=Cc2ncnc(N)c21 (stereo unspecified)
Response line: ≥ 189 µM

Prompt line: Quick check: MIC of CC1=C(/C=C/C2=CC(N)=C(C#N)C(C)(/C=C/C3=C(C)CCCC3(C)C)C2)C(C)(C)CCC1 (stereo unspecified) ?
Response line: ≥ 189 µM

Prompt line: I'd like to know its MIC. The compound in question is CC1(c2cccs2)CC(c2cccs2)=CC(N)=C1C#N (stereo unspecified)
Response line: ≥ 189 µM

Prompt line: Fill in the blank: the reported MIC of CC1(c2ccccc2)CC(c2ccccc2)=Cc2ncnc(N)c21 (stereo unspecified) is ____.
Response line: ≥ 189 µM

Prompt line: What does the record list as MIC for CC1(c2ccccc2)CC(c2ccccc2)=CC(N)=C1C#N (stereo unspecified) ?
Response line: ≥ 189 µM

Prompt line: Form field: reported MIC of CC1(c2ccc(F)cc2)CC(c2ccc(F)cc2)=Cc2ncnc(N)c21 (stereo unspecified)
Response line: ≥ 189 µM

###

Each entry below carries its reported CC50.
Tested on: Jurkat
Test: Cytotoxicity against human Jurkat cells
Type: functional, cell-based
Write the value in µM as a bare number.

Sample answers from the record:
COMPOUND	MEASUREMENT TARGET	OUTPUT UNIT	MEASURED NUMBER
CC1=C(/C=C/C2=CC(N)=C(C#N)C(C)(/C=C/C3=C(C)CCCC3(C)C)C2)C(C)(C)CCC1 (stereo not given)	Jurkat	µM	12.7
CCCCCCC1=Cc2ncnc(N)c2C(C)(CCCCCC)C1 (stereo not given)	Jurkat	µM	12.6
CC1(c2ccc(Br)cc2)CC(c2ccc(Br)cc2)=CC(N)=C1C#N (stereo not given)	Jurkat	µM	20.5
CC1(c2ccc(-c3ccccc3)cc2)CC(c2ccc(-c3ccccc3)cc2)=Cc2ncnc(N)c21 (stereo not given)	Jurkat	µM	10.4
CC1(c2ccc(Br)s2)CC(c2ccc(Br)s2)=Cc2ncnc(N)c21 (stereo not given)	Jurkat	µM	9.51

Prompt line: Could you tell me which CC50 is on file for CC1(c2cccs2)CC(c2cccs2)=CC(N)=C1C#N (stereo not given) ?
Response line: 172

Prompt line: Given the compound CC1(c2ccc(-c3ccccc3)cc2)CC(c2ccc(-c3ccccc3)cc2)=CC(N)=C1C#N (stereo not given) , what is its reported CC50?
Response line: 19.3

Prompt line: Fill in: CC50 of CC1(c2cccs2)CC(c2cccs2)=Cc2ncnc(N)c21 (stereo not given) is ___
Response line: 15.4

Prompt line: Suppose we examine the compound CCCCCCC1=CC(N)=C(C#N)C(C)(CCCCCC)C1 (stereo not given) ; what CC50 value has been reported?
Response line: 46.8

Prompt line: // lookup CC50 for CC1(c2ccc(Br)cc2)CC(c2ccc(Br)cc2)=Cc2ncnc(N)c21 (stereo not given)
Response line: 12.7

Entry source: ChEMBL document CHEMBL1144832
